Origin of measurements: patent US10981908B2

Overview of reported pIC50 across a group of compounds:
test.target: AhR (Homo sapiens)
Construct: The HepG2 CYP1A1-Luc cells do express basal luciferase activity that can be increased via potent AhR agonists or decreased via potent AhR antagonists; endogenous in cells
assay.summary: AhR direct luciferase reporter assay in HepG2 cells (HepG2 CYP1A1-LUC)
Type: cell-based
stated.conditions: luciferase activity after 18 hours, medium with no exogenous AhR agonist or 10 nM VAF347, read-out: AhR potency (AhR antagonistic potency, IC50 class)
pIC50: −log10 of the molar value.

Previously resolved entries follow.
{"columns": ["compound.structure", "pIC50"],
 "data": [
  ["Cn1ncnc1C(=O)Nc1ccc2cc(-c3cc(C4CC4)ccc3C(F)(F)F)[nH]c2n1", "> 7.00"],
  ["Cn1ncnc1C(=O)Nc1ccc2cc(-c3cccc(F)c3C(F)(F)F)[nH]c2n1", "> 7.00"]
]}

Look up AhR (Homo sapiens) data: pIC50 of `CCn1ncnc1C(=O)Nc1ccc2cc(-c3ccccc3C(F)F)[nH]c2n1` , then report it.
> 7.00

Look up AhR (Homo sapiens) data: pIC50 of `Cn1nc(C(N)=O)cc1C(=O)Nc1ccc2cc(-c3ccccc3C(F)(F)F)[nH]c2n1` , then report it.
6.00 to 7.00

Look up AhR (Homo sapiens) data: pIC50 of `O=C(Nc1ccc2cc(-c3ccccc3C(F)(F)F)[nH]c2n1)c1ccccn1` , then report it.
> 7.00

Look up AhR (Homo sapiens) data: pIC50 of `Cn1ncnc1C(=O)Nc1ccc2cc(-c3ccccc3C#N)[nH]c2n1` , then report it.
6.00 to 7.00

* * *

test.target: AhR (Homo sapiens, UniProt P35869)
Construct: The HepG2 CYP1A1-Luc cells do express basal luciferase activity that can be increased via potent AhR agonists or decreased via potent AhR antagonists; endogenous in cells
assay.summary: AhR direct luciferase reporter assay in HepG2 cells (HepG2 CYP1A1-LUC)
stated.conditions: luciferase activity after 18 hours, medium with no exogenous AhR agonist or 10 nM VAF347, read-out: AhR potency (AhR antagonistic potency, IC50 class)
Excerpt: AhR Direct Luciferase Reporter Assay in HepG2 Cells A stable cell line (HepG2 CYP1A1-LUC) was used in which part of the promoter region of the human CYP1A1 gene is stably integrated into the genome of human HepG2 hepatocytes (DSZM #ACC 180) in front of a Photinus pyralis Firefly Luciferase gene. […]
measured.quantity: IC50

{"columns": ["compound", "test.target", "assay.value"],
 "data": [
  ["Cc1scnc1C(=O)Nc1ccc2cc(-c3ccccc3C(F)F)[nH]c2n1 [5/2]", "AhR (Homo sapiens, UniProt P35869)", "< 100 nM"]
]}

Look up AhR (Homo sapiens, UniProt P35869) data: IC50 of Cn1ncnc1C(=O)Nc1ccc2cc(-c3ccccc3C(N)=O)[nH]c2n1 [Example 7] , then report it.
100 to 1000 nM

Look up AhR (Homo sapiens, UniProt P35869) data: IC50 of COc1ccccc1-c1cc2ccc(NC(=O)c3ncnn3C)nc2[nH]1 [Example 1/18] , then report it.
100 to 1000 nM

Look up AhR (Homo sapiens, UniProt P35869) data: IC50 of Cn1ncnc1C(=O)Nc1ccc2cc(-c3ncccc3C(F)(F)F)[nH]c2n1 [Example 1/17] , then report it.
> 1000 nM

Look up AhR (Homo sapiens, UniProt P35869) data: IC50 of Cn1ncnc1C(=O)Nc1ccc2c(F)c(-c3ccccc3C(F)F)[nH]c2n1 [4/6] , then report it.
100 to 1000 nM

Look up AhR (Homo sapiens, UniProt P35869) data: IC50 of Cn1ncnc1C(=O)Nc1ccc2cc(-c3ccccc3C(F)F)[nH]c2n1 [Example 1/15] , then report it.
< 100 nM

* * *

Overview of reported IC50 across a group of molecules:
test.target: AhR (Homo sapiens, UniProt P35869)
Construct: The HepG2 CYP1A1-Luc cells do express basal luciferase activity that can be increased via potent AhR agonists or decreased via potent AhR antagonists; endogenous in cells
Sequence (P35869 11-848): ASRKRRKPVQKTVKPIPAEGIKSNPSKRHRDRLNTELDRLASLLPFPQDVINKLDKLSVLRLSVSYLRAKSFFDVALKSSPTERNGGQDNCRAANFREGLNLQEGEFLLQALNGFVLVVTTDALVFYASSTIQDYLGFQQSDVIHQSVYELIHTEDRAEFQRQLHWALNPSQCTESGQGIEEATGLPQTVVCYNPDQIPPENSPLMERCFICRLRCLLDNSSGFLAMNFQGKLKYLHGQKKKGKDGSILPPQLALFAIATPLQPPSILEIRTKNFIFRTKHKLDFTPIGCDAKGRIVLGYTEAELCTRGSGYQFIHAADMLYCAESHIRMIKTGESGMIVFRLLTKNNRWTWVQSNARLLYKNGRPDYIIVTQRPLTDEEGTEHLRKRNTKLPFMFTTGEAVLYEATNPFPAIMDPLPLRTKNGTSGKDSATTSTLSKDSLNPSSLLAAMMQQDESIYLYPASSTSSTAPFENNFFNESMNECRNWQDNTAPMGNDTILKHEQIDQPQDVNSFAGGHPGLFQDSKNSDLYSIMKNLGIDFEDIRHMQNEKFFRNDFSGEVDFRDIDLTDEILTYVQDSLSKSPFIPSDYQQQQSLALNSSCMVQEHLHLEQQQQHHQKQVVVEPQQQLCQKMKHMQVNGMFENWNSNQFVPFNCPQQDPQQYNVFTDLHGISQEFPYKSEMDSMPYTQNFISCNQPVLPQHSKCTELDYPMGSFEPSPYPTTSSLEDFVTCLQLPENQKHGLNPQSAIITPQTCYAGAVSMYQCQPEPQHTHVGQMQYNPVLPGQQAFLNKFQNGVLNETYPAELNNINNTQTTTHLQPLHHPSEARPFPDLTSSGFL
assay.summary: AhR direct luciferase reporter assay in HepG2 cells (HepG2 CYP1A1-LUC)
Format: cell-based
stated.conditions: luciferase activity after 18 hours, medium with no exogenous AhR agonist or 10 nM VAF347, read-out: AhR potency (AhR antagonistic potency, IC50 class)

Previously resolved entries follow.
{"columns": ["compound.structure", "IC50"],
 "data": [
  ["O=C(Nc1ccc2cc(-c3ccccc3C(F)(F)F)[nH]c2n1)c1ccc(F)cc1", "< 100 nM"],
  ["Cc1nonc1C(=O)Nc1ccc2cc(-c3ccccc3C(F)(F)F)[nH]c2n1", "< 100 nM"],
  ["CN(C)C(=O)c1ccccc1-c1cc2ccc(NC(=O)c3ncnn3C)nc2[nH]1", "> 1000 nM"]
]}

Supply IC50 value. Item: `Cn1ncnc1C(=O)Nc1ccc2cc(-c3ccccc3C(=O)O)[nH]c2n1`
> 1000 nM

* * *

test.target: AhR (Homo sapiens)
Construct: The HepG2 CYP1A1-Luc cells do express basal luciferase activity that can be increased via potent AhR agonists or decreased via potent AhR antagonists; endogenous in cells
assay.summary: AhR direct luciferase reporter assay in HepG2 cells (HepG2 CYP1A1-LUC)
stated.conditions: luciferase activity after 18 hours, medium with no exogenous AhR agonist or 10 nM VAF347, read-out: AhR potency (AhR antagonistic potency, IC50 class)
measured.quantity: IC50

{"columns": ["compound.structure", "IC50"],
 "data": [
  ["Cn1nccc1C(=O)Nc1ccc2cc(-c3ccccc3C(F)(F)F)[nH]c2n1", "< 100 nM"],
  ["Cn1nccc1C(=O)Nc1ccc2cc(-c3ccccc3OC(F)(F)F)[nH]c2n1", "> 1000 nM"],
  ["Cn1ncnc1C(=O)Nc1ccc2cc(-c3cc(F)ccc3C(F)F)[nH]c2n1", "< 100 nM"],
  ["Cc1ccc(C(F)F)c(-c2cc3ccc(NC(=O)c4ncnn4C)nc3[nH]2)c1", "< 100 nM"],
  ["Cn1ncnc1C(=O)Nc1ccc2cc(-c3ccc(C(F)F)cc3)[nH]c2n1", "< 100 nM"]
]}

# ---- query compound ----
Supply IC50 value. Item: `CCc1ccc(C(F)(F)F)c(-c2cc3ccc(NC(=O)c4ncnn4C)nc3[nH]2)c1`
< 100 nM

* * *

test.target: AhR (Homo sapiens)
Construct: The HepG2 CYP1A1-Luc cells do express basal luciferase activity that can be increased via potent AhR agonists or decreased via potent AhR antagonists; endogenous in cells
assay.summary: AhR direct luciferase reporter assay in HepG2 cells (HepG2 CYP1A1-LUC)
stated.conditions: luciferase activity after 18 hours, medium with no exogenous AhR agonist or 10 nM VAF347, read-out: AhR potency (AhR antagonistic potency, IC50 class)
Overview of reported IC50 across a group of compounds:

Previously resolved entries follow.
{"columns": ["compound", "test.target", "assay.value"],
 "data": [
  ["Cn1nccc1C(=O)Nc1ccc2cc(-c3cccnc3C(F)(F)F)[nH]c2n1 [Example 1/3]", "AhR (Homo sapiens)", "100 to 1000 nM"],
  ["Cn1ncnc1C(=O)Nc1ccc2c(C#N)c(-c3ccccc3C(F)F)[nH]c2n1 [Example 14]", "AhR (Homo sapiens)", "< 100 nM"],
  ["Cc1ccc(C(F)(F)F)c(-c2cc3ccc(NC(=O)c4ncnn4C)nc3[nH]2)c1 [Example 1/33]", "AhR (Homo sapiens)", "< 100 nM"],
  ["Cc1ocnc1C(=O)Nc1ccc2cc(-c3ccccc3C(F)F)[nH]c2n1 [5/1]", "AhR (Homo sapiens)", "< 100 nM"]
]}

Look up AhR (Homo sapiens) data: IC50 of Cn1cnnc1C(=O)Nc1ccc2cc(-c3ccccc3C(F)(F)F)[nH]c2n1 [Example 1/21] , then report it.
100 to 1000 nM

Look up AhR (Homo sapiens) data: IC50 of Cn1ncnc1C(=O)Nc1ccc2cc(-c3ccc(F)cc3C(F)(F)F)[nH]c2n1 [Example 1/14] , then report it.
< 100 nM

Look up AhR (Homo sapiens) data: IC50 of Cn1ncnc1C(=O)Nc1ccc2cc(-c3ccc(C(=O)O)cc3)[nH]c2n1 [Example 12/1] , then report it.
> 1000 nM

Look up AhR (Homo sapiens) data: IC50 of Cn1ncnc1C(=O)Nc1ccc2cc(-c3cc(F)ccc3C#N)[nH]c2n1 [4/3] , then report it.
100 to 1000 nM

Look up AhR (Homo sapiens) data: IC50 of O=C(Nc1ccc2cc(-c3ccccc3C(F)(F)F)[nH]c2n1)c1ccccc1F [Example 1/8] , then report it.
< 100 nM

Look up AhR (Homo sapiens) data: IC50 of Cc1cc2cc(-c3ccccc3C(F)(F)F)[nH]c2nc1NC(=O)c1ncnn1C [Example 1/31] , then report it.
100 to 1000 nM

Look up AhR (Homo sapiens) data: IC50 of O=C(Nc1ccc2cc(-c3ccccc3C(F)(F)F)[nH]c2n1)c1cc2ccoc2cn1 [Example 1/19] , then report it.
100 to 1000 nM
